TEST TARGET: Human COX I (Homo sapiens, UniProt P23219)
Construct: A 2.0 kb fragment containing the coding region of either human or murine COX-I or human or murine COX-II
Sequence (P23219 24-599): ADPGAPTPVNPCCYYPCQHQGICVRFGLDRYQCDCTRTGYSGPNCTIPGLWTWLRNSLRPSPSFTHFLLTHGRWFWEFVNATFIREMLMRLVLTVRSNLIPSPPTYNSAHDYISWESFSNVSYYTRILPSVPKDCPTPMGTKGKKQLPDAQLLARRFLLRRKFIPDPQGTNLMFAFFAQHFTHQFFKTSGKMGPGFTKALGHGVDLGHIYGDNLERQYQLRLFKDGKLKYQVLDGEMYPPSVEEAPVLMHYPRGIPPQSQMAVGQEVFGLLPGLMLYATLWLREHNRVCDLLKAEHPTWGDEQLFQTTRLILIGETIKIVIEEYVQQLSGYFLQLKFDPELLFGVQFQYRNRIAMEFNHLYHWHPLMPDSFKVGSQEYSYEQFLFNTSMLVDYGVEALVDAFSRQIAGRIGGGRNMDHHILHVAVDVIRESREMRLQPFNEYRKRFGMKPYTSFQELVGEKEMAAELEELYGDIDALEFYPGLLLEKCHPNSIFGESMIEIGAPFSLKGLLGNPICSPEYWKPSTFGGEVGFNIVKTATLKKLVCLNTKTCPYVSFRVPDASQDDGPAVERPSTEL
METHOD DESCRIPTION: COX I activity in vitro (PGE2 ELISA, recombinant enzyme)
PROTOCOL CONDITIONS: arachidonic acid 10 μM, pre-incubation 10-20 minutes; read-out: Human COX I ID50
MEASUREMENT NAME: IC50

Below are worked cases with known answers.
Cc1nc(-c2ccc(S(C)(=O)=O)cc2)c(-c2ccc(F)cc2)[nH]1 [Example 6] :: > 100 µM
CS(=O)(=O)c1ccc(-c2nc(-c3cc4ccccc4o3)[nH]c2-c2ccc(F)cc2)cc1 [Example 4] :: > 100 µM

What does the data say about its IC50? Entry: CS(=O)(=O)c1ccc(-c2nc(C(F)(F)F)[nH]c2-c2ccccc2)cc1 [Example 19] > 100 µM
